# TARGET: human PAR4 (Homo sapiens, UniProt Q96RI0)
# TEST_NAME: PAR4 FLIPR assay: antagonism of agonist-peptide-induced calcium mobilization in PAR4-expressing HEK293 cells
# CONDITIONS_USED: H-Ala-Phe(4-F)-[…]NH2-induced intracellular calcium mobilization, 11-point curves
I'd appreciate it if you could supply IC50 values for the items below.
Answers are plain numbers, in nM.

Example entries begin here.
[
  {
    "MOLECULE": "COc1cnc2c(-c3nc4cc(F)c(OC[C@@H](C)OC(=O)Nc5cnc(C(N)=O)nc5)cc4s3)cc(C)cc2n1",
    "UNITS_TEXT": "nM",
    "ASSAY_VALUE": 0.5
  },
  {
    "MOLECULE": "Cc1cc(-c2nc3ccc(OCCNC(=O)OC4CCOC4)cc3s2)c2ncc(OC(F)F)nc2c1 (stereo not shown)",
    "UNITS_TEXT": "nM",
    "ASSAY_VALUE": 80
  },
  {
    "MOLECULE": "COc1cc(C)c2nc(-c3cc(Cl)cc4nc(OC)cnc34)sc2c1",
    "UNITS_TEXT": "nM",
    "ASSAY_VALUE": 17
  }
]

Query molecule follows.
Suppose we examine the molecule COc1cc(C(O)C2(c3ccccc3)CCC2)c2nc(-c3cc(C)cc4nc(OC)cnc34)sc2c1 (stereo not shown) ; what IC50 value has been reported? 1.7

====

# TARGET: human PAR4 (Homo sapiens, UniProt Q96RI0)
# TEST_NAME: PAR4 FLIPR assay: antagonism of agonist-peptide-induced calcium mobilization in PAR4-expressing HEK293 cells
# CONDITIONS_USED: H-Ala-Phe(4-F)-[…]NH2-induced intracellular calcium mobilization, 11-point curves
READOUT_TYPE: IC50 (nM)
Answers are plain numbers, in nM.

Example entries begin here.
[
  {
    "COMPOUND": "COc1cc(C)c2nc(-c3cc(C)cc4nc(OC(F)F)cnc34)sc2c1 [Example 10]",
    "READOUT_TYPE": "IC50",
    "UNITS_TEXT": "nM",
    "ASSAY_VALUE": 2.2
  },
  {
    "COMPOUND": "COc1cnc2c(-c3nc4cc(F)c(O[C@@H](C)[C@@H](C)OC(=O)Nc5ccnc(OCC(C)(C)O)c5)cc4s3)cc(C)cc2n1 [Example 562]",
    "READOUT_TYPE": "IC50",
    "UNITS_TEXT": "nM",
    "ASSAY_VALUE": 1.6
  },
  {
    "COMPOUND": "CCOc1cnc2c(-c3nc4cc(F)c(O[C@@H](C)[C@@H](C)OC(=O)Nc5cnc(OC[C@@H](C)O)nc5)cc4s3)cc(C)cc2n1 [Example 580]",
    "READOUT_TYPE": "IC50",
    "UNITS_TEXT": "nM",
    "ASSAY_VALUE": 1.1
  }
]

Query compound follows.
Suppose we examine the compound COc1cnc2c(-c3nc4c(C)c(F)c(OC)cc4s3)cc(C(O)c3ccccc3)cc2n1 (stereo not shown) [Example 245] ; what IC50 value has been reported? 92

====

# TARGET: human PAR4 (Homo sapiens)
# Sequence (Q96RI0 18-385): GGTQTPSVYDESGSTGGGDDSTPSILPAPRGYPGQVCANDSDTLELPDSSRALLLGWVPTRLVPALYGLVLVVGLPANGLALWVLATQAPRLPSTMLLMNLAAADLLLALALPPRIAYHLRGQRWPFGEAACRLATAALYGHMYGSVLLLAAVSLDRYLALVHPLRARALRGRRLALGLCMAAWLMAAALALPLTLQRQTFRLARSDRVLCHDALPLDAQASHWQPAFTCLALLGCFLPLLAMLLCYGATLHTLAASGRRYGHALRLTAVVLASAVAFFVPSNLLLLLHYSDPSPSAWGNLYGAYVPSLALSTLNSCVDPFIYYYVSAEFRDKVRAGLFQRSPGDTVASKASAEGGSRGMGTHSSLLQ
# TEST_NAME: PAR4 FLIPR assay: antagonism of agonist-peptide-induced calcium mobilization in PAR4-expressing HEK293 cells
# CONDITIONS_USED: H-Ala-Phe(4-F)-[…]NH2-induced intracellular calcium mobilization, 11-point curves
I'd appreciate it if you could supply pIC50 values for the items below.
Give bare numbers, as −log10 of the molar value.

Example entries begin here.
[
  {
    "COMPOUND": "COc1cnc2c(-c3nc4c(C(O)C(C)(C)C)cc(OCCOC(=O)Nc5ccncc5)cc4s3)cc(C)cc2n1 (stereo not shown)",
    "READOUT_TYPE": "pIC50",
    "ASSAY_VALUE": 8.52
  },
  {
    "COMPOUND": "COc1cnc2c(-c3nc4cc(F)c(O[C@@H](C)[C@@H](C)OC(=O)Nc5cnc(C(N)=O)nc5)cc4s3)cc(C)cc2n1",
    "READOUT_TYPE": "pIC50",
    "ASSAY_VALUE": 8.89
  },
  {
    "COMPOUND": "COc1cc(OC)c2nc(-c3cc(C)cc4nc(OC(F)F)cnc34)sc2c1",
    "READOUT_TYPE": "pIC50",
    "ASSAY_VALUE": 7.85
  },
  {
    "COMPOUND": "COc1cnc2c(-c3nc4cc(F)c(O[C@H](C)COC(=O)Nc5cccnc5)cc4s3)cc(C)cc2n1",
    "READOUT_TYPE": "pIC50",
    "ASSAY_VALUE": 7.96
  },
  {
    "COMPOUND": "Cc1cc(-c2nc3ccc(OCc4cscn4)cc3s2)c2ncc(OC(F)F)nc2c1",
    "READOUT_TYPE": "pIC50",
    "ASSAY_VALUE": 6.80
  }
]

Hi! Can you tell me pIC50 for each of these compounds?
1. COc1cnc2c(-c3nc4cc(F)c(OC[C@@H](C)OC(=O)Nc5cnc(OCCO)nc5)cc4s3)cc(C)cc2n1
2. COc1cnc2c(-c3nc4cc(F)c(O[C@@H](C)[C@@H](C)OC(=O)Nc5cnc(O[C@@H](C)CO)nc5)nc4s3)cc(C)cc2n1

[8.96, 8.68]
